Tested on: sheep red blood cells
condition.label: red cells of sheep, 1 h, 128
Where no end group is shown, it is not given here.
# maps each entry to its Hemolysis ratio (%) at 128μg/mL
Respond numerically; units are % and should not be typed.

Examples from the recorded data:
MRCSLKKIISTFFS [Cand-71] | 19.534
MLTWLKKLQPYLISMMR [Cand-44] | 19.067
MSPIRAWRRLRSC [Cand-144] | 10.013
MRIVMCRIGGRL [Cand-102] | 41.034

Now look at this one.
Entry MKKCRRKVLFGLWRRN [Cand-77] — recorded Hemolysis ratio (%) at 128μg/mL = 12.471

###

Test system: sheep red blood cells
condition.label: red cells of sheep, 1 h, 16
Where no end group is shown, it is not given here.
For each record, check the reported Hemolysis ratio (%) at 16μg/mL: if it is below 3% write 1, else write -1.

Illustrative cases are given below, each with its answer.
MRCSLKKIISTFFS [Cand-71] | -1
MSRSLRNLLKYVWVKVKGE [Cand-217] | 1
MRIVMCRIGGRL [Cand-102] | -1
MWIRLTKRLRKSRSNR [Cand-214] | 1
MVAVMKKLLLKYALK [Cand-82] | -1
MKKCRRKVLFGLWRRN [Cand-77] | -1

INPUT: Dear colleague, could you confirm whether Hemolysis ratio (%) at 16μg/mL of MLTWLKKLQPYLISMMR [Cand-44] falls below 3%? Thanks.
OUTPUT: 1

INPUT: Dear colleague, could you confirm whether Hemolysis ratio (%) at 16μg/mL of MWPLSKLWPSCFRKTT [Cand-5] falls below 3%? Thanks.
OUTPUT: 1

INPUT: Dear colleague, could you confirm whether Hemolysis ratio (%) at 16μg/mL of MSPCLKGVIRSAVKSLHR [Cand-53] falls below 3%? Thanks.
OUTPUT: 1

INPUT: Dear colleague, could you confirm whether Hemolysis ratio (%) at 16μg/mL of MSPIRAWRRLRSC [Cand-144] falls below 3%? Thanks.
OUTPUT: 1

INPUT: Dear colleague, could you confirm whether Hemolysis ratio (%) at 16μg/mL of MRPKKWLKKPKPRPKKWPTK [Cand-210] falls below 3%? Thanks.
OUTPUT: 1

###

Tested on: Salmonella bongori ATCC 43975
test.summary: Antibacterial screen at 200 μg/mL (cell density vs control)
Type: cell-based
condition.label: peptide 200 μg/mL, CAMHB, 5 × 10^5 CFU/mL, 37°C, 12 h, OD600; control (no AMP) = 1; three biological replicates
Where cell density relative to control, S. bongori ATCC 43975 equals or exceeds 0.5, the correct label is satisfied; where it does not, the label is not satisfied.

Illustrative cases are given below, each with its answer.
MRPCMCRIGGRL [Cand-19, chemically synthesized candidate AMP predicted from marine biofilm bacteria] | satisfied
MAWISTRIACCCSTRLRRRIRTCSTSFCR [Cand-218, chemically synthesized candidate AMP predicted from marine biofilm bacteria] | satisfied
MICWCAKICCSCSAFRRWWKRNGTAC [Cand-57, chemically synthesized candidate AMP predicted from marine biofilm bacteria] | not satisfied
MYSVWPKSLRSVAGRGPKHRC [Cand-139, chemically synthesized candidate AMP predicted from marine biofilm bacteria] | not satisfied
MSKIKAKIGHLR [Cand-98, chemically synthesized candidate AMP predicted from marine biofilm bacteria] | satisfied

Proceed to the following item.
INPUT: # bool: cell density relative to control, S. bongori ATCC 43975 of MVKLLKKMVSLYH [Cand-122, chemically synthesized candidate AMP predicted from marine biofilm bacteria] >= 0.5
OUTPUT: not satisfied

###

System: Salmonella bongori ATCC 43975
test.summary: Antibacterial screen at 200 μg/mL (cell density vs control)
Type: cell-based
condition.label: peptide 200 μg/mL, CAMHB, 5 × 10^5 CFU/mL, 37°C, 12 h, OD600; control (no AMP) = 1; three biological replicates
outcome.measure: cell density relative to control, S. bongori ATCC 43975
Provide a numeric answer; units are not to be included.

MKGLSKCVTHVVTAA [Cand-115, chemically synthesized candidate AMP predicted from marine biofilm bacteria] | 0.935
MQPILKKAAPKHVGYFYKCYL [Cand-119, chemically synthesized candidate AMP predicted from marine biofilm bacteria] | 0.699

Now look at this one.
Entry MCRWWPDWWHHRWWHCRGCCRFCRG [Cand-111, chemically synthesized candidate AMP predicted from marine biofilm bacteria] — recorded cell density relative to control, S. bongori ATCC 43975 = 0.794

###

# maps each entry to its Hemolysis ratio (%) at 8μg/mL
Test system: sheep red blood cells
condition.label: red cells of sheep, 1 h, 8
Where no end group is shown, it is not given here.

Log: sheep red blood cells, sequence MVAVMKKLLLKYALK [Cand-82] , Hemolysis ratio (%) at 8μg/mL = 2.395%

Log: sheep red blood cells, sequence MKKCRRKVLFGLWRRN [Cand-77] , Hemolysis ratio (%) at 8μg/mL = 3.431%

Log: sheep red blood cells, sequence MRIVMCRIGGRL [Cand-102] , Hemolysis ratio (%) at 8μg/mL = 6.842%

Log: sheep red blood cells, sequence MWIRLTKRLRKSRSNR [Cand-214] , Hemolysis ratio (%) at 8μg/mL = 1.812%

Log: sheep red blood cells, sequence MRCSLKKIISTFFS [Cand-71] , Hemolysis ratio (%) at 8μg/mL = 6.779%

Log: sheep red blood cells, sequence MSPIRAWRRLRSC [Cand-144] , Hemolysis ratio (%) at 8μg/mL = 1.328%

Log: sheep red blood cells, sequence MSPCLKGVIRSAVKSLHR [Cand-53] , Hemolysis ratio (%) at 8μg/mL = 2.990%

Log: sheep red blood cells, sequence MRPKKWLKKPKPRPKKWPTK [Cand-210] , Hemolysis ratio (%) at 8μg/mL = 0.520%

Log: sheep red blood cells, sequence MLTWLKKLQPYLISMMR [Cand-44] , Hemolysis ratio (%) at 8μg/mL = 3.540%

Log: sheep red blood cells, sequence MWPLSKLWPSCFRKTT [Cand-5] , Hemolysis ratio (%) at 8μg/mL = 2.350%

Log: sheep red blood cells, sequence MSRSLRNLLKYVWVKVKGE [Cand-217] , Hemolysis ratio (%) at 8μg/mL = 2.490%

###

# maps each entry to its cell density relative to control, E. coli ATCC 11775
Test system: Escherichia coli ATCC 11775
test.summary: Antibacterial screen at 200 μg/mL (cell density vs control)
Assay type: cell-based
condition.label: peptide 200 μg/mL, CAMHB, 5 × 10^5 CFU/mL, 37°C, 12 h, OD600; control (no AMP) = 1; three biological replicates
Provide a numeric answer; units are not to be included.

MRKGCKLIPCICDVNCRRRTG [Cand-8, chemically synthesized candidate AMP predicted from marine biofilm bacteria] | 0
MTWPSRSRMWRTC [Cand-129, chemically synthesized candidate AMP predicted from marine biofilm bacteria] | 0.692
MCRWWPDWWHHRWWHCRGCCRFCRG [Cand-111, chemically synthesized candidate AMP predicted from marine biofilm bacteria] | 0.669
MRPGMCRIGGRL [Cand-22, chemically synthesized candidate AMP predicted from marine biofilm bacteria] | 1
MFKFFCCIFYMCRIKTH [Cand-18, chemically synthesized candidate AMP predicted from marine biofilm bacteria] | 0.004

Entry MCTIRTCRRSRPHHCSTHC [Cand-101, chemically synthesized candidate AMP predicted from marine biofilm bacteria] — recorded cell density relative to control, E. coli ATCC 11775 = 0.967

###

System: Bacillus subtilis ATCC 23857
test.summary: Antibacterial screen at 200 μg/mL (cell density vs control)
Type: cell-based
condition.label: peptide 200 μg/mL, CAMHB, 5 × 10^5 CFU/mL, 37°C, 12 h, OD600; control (no AMP) = 1; three biological replicates
# maps each entry to its cell density relative to control, B. subtilis ATCC 23857
Provide a numeric answer; units are not to be included.

Entry MWTIYSGIKRSLHYCRRRGYYCSRYGYYS [Cand-43, chemically synthesized candidate AMP predicted from marine biofilm bacteria] — recorded cell density relative to control, B. subtilis ATCC 23857 = 0.67

Entry MPASRRCRPCCRLSGC [Cand-7, chemically synthesized candidate AMP predicted from marine biofilm bacteria] — recorded cell density relative to control, B. subtilis ATCC 23857 = 0.065

Entry MCRWWPDWWHHRWWHCRGCCRFCRG [Cand-111, chemically synthesized candidate AMP predicted from marine biofilm bacteria] — recorded cell density relative to control, B. subtilis ATCC 23857 = 1

Entry MSPRICSVISCLMKLRC [Cand-11, chemically synthesized candidate AMP predicted from marine biofilm bacteria] — recorded cell density relative to control, B. subtilis ATCC 23857 = 1

Entry MWWSKSIHQACFTRYRGYCRWCCTFSIRSCRY [Cand-3, chemically synthesized candidate AMP predicted from marine biofilm bacteria] — recorded cell density relative to control, B. subtilis ATCC 23857 = 1

Entry MCALKWFCKSLIRALNKAT [Cand-68, chemically synthesized candidate AMP predicted from marine biofilm bacteria] — recorded cell density relative to control, B. subtilis ATCC 23857 = 0
